The following compounds are shown together with reported growth values.
- System: SF-295 CNS
- experiment: NCI-60 one-dose screen, 48 h (100 = growth as untreated, 0 = no growth, -100 = all killed)
- condition_notes: 10 µM unless noted
- Method: Cells are grown in 96 well plates and exposed to the test compound for 48 hours. Compounds are tested at a single concentration, which is 10^-5 M for most compounds. The reported endpoint is percent growth (GI% or GIPRCNT), where numbers from 0 - 100% represent growth inhibition, and numbers from -100% - 0 represent cell death. For example, a value of 40 represents 60% growth inhibition. A value of 0 means no net growth occurred over the course of the experiment. […]
About 83,000 compounds went through this panel and 20% of them were active in at least one assay; those are over-represented in the sample as a whole.
endpoint_label: growth (%)

[
  {
    "compound": "O=C(NNC(=S)NCCc1ccccc1)c1ccc(OCc2nc3ccc(Cl)cc3[nH]2)cc1",
    "subject_of_test": "SF-295 CNS",
    "endpoint_label": "growth",
    "measured_value": 61.4
  },
  {
    "compound": "C=CCn1c(O)c(N=Nc2nc(-c3cc4ccccc4oc3=O)cs2)c2ccccc21",
    "subject_of_test": "SF-295 CNS",
    "endpoint_label": "growth",
    "measured_value": 54.6
  },
  {
    "compound": "N#Cc1ccc(C(=O)CSc2nc3c(c(Nc4ccc(S(N)(=O)=O)cc4)n2)CCC3)cc1",
    "subject_of_test": "SF-295 CNS",
    "endpoint_label": "growth",
    "measured_value": 80.4
  },
  {
    "compound": "COc1ccc(-c2cc(-c3cc(C(C)C)c(O)cc3C)nn2-c2ccc(S(N)(=O)=O)cc2)cc1",
    "subject_of_test": "SF-295 CNS",
    "endpoint_label": "growth",
    "measured_value": 19.8
  },
  {
    "compound": "O=C(Nc1ccc(Cl)c(C(F)(F)F)c1)N1CCN(c2cc(-c3cn(-c4ccccc4)nc3-c3cccc(O)c3)ccn2)CC1",
    "subject_of_test": "SF-295 CNS",
    "endpoint_label": "growth",
    "measured_value": -37.2
  },
  {
    "compound": "O=C(N=Nc1c(O)[nH]c2ccc(Br)cc12)c1ccc2nc(-c3ccc(Cl)cc3)[nH]c2c1",
    "subject_of_test": "SF-295 CNS",
    "endpoint_label": "growth",
    "measured_value": -62.8
  },
  {
    "compound": "Oc1ccc(Cl)c(Nc2nc(SCCN3CCOCC3)nc3c2cnn3CC(Cl)c2ccc(Br)cc2)c1 (stereo not drawn)",
    "subject_of_test": "SF-295 CNS",
    "endpoint_label": "growth",
    "measured_value": 13
  },
  {
    "compound": "COc1cc(CNC(=O)[C@]23CCC(C)(C)CC2C2=CCC4[C@@]5(C)CCC(OC(C)=O)C(C)(C)C5CC[C@@]4(C)[C@]2(C)CC3)ccc1OCc1cn(-c2ccc(Cl)cc2Cl)nn1 (stereo partly drawn)",
    "subject_of_test": "SF-295 CNS",
    "endpoint_label": "growth",
    "measured_value": 100
  }
]

====

- Test system: A549/ATCC NSCLC
- experiment: NCI-60 one-dose screen, 48 h (100 = growth as untreated, 0 = no growth, -100 = all killed)
- condition_notes: 10 µM unless noted
This is part of a sample that, as a whole, favours compounds with a hit. Of some 83,000 tested, about 20% had one in any assay.
The following molecules are shown together with reported growth values.
endpoint_label: growth (%)

[
  {
    "molecule": "COc1ccc(SC2c3cc(OC)ccc3Oc3nc(N)c(C#N)c(N)c32)cc1 (stereo not drawn)",
    "subject_of_test": "A549/ATCC NSCLC",
    "measured_value": 95.8
  },
  {
    "molecule": "Cc1cc(C2(c3cc(C)c(OCC(O)CNc4c(C)n(C)n(-c5ccccc5)c4=O)cc3C(C)C)OC(=O)c3ccccc32)c(C(C)C)cc1OCC(O)CNc1c(C)n(C)n(-c2ccccc2)c1=O (stereo not drawn)",
    "subject_of_test": "A549/ATCC NSCLC",
    "measured_value": 22.4
  },
  {
    "molecule": "Oc1ccc(F)c(Nc2nc(SCCN3CCOCC3)nc3c2cnn3CC(Cl)c2ccc(Br)cc2)c1 (stereo not drawn)",
    "subject_of_test": "A549/ATCC NSCLC",
    "measured_value": 23.9
  },
  {
    "molecule": "COC(=O)c1cc(C(=O)C(F)(F)F)n2c3ccccc3c3ccccc3c12",
    "subject_of_test": "A549/ATCC NSCLC",
    "measured_value": 92.8
  },
  {
    "molecule": "CCCCN1C(=O)/C(=C\\C(=O)c2cc3ccccc3oc2=O)c2ccccc21",
    "subject_of_test": "A549/ATCC NSCLC",
    "measured_value": 106
  },
  {
    "molecule": "COc1c(F)ccc(C(=O)Nc2ccc3nc(NC(=O)C4CCCN(S(=O)(=O)c5ccc(C(C)(C)C)cc5)C4)sc3c2)c1F (stereo not drawn)",
    "subject_of_test": "A549/ATCC NSCLC",
    "measured_value": 64.1
  },
  {
    "molecule": "OCCn1cc(-c2nc3ccc4[nH]ncc4c3c3c2CCCC3)cn1",
    "subject_of_test": "A549/ATCC NSCLC",
    "measured_value": 26.6
  },
  {
    "molecule": "COc1ccc(/C=C/C(=O)c2ccc(OC)c(S(N)(=O)=O)c2)c(C(F)(F)F)c1",
    "subject_of_test": "A549/ATCC NSCLC",
    "measured_value": 10.6
  }
]

====

The following compounds are shown together with reported growth values.
- Test system: HOP-92 NSCLC
- experiment: NCI-60 one-dose screen, 48 h (100 = growth as untreated, 0 = no growth, -100 = all killed)
- condition_notes: 10 µM unless noted
Compounds without any hit were thinned out: in the full panel of roughly 83,000, 20% have a hit.

[
  {
    "compound": "COc1ccc(-c2nc3ccccc3n2CC(=O)N=Nc2c(O)[nH]c3ccc(OC)cc23)cc1",
    "subject_of_test": "HOP-92 NSCLC",
    "growth, %": -7.89
  },
  {
    "compound": "CN(C)c1nc(NCCNS(=O)(=O)c2ccc(C(=O)/C=C/c3ccc(C(F)(F)F)cc3)cc2)nc(N2CCOCC2)n1",
    "subject_of_test": "HOP-92 NSCLC",
    "growth, %": 32.3
  },
  {
    "compound": "O=C(Nc1ccc(-c2ccc3c(c2)NC(=O)/C3=C\\c2ccc[nH]2)cc1)Nc1ccc(Cl)c(C(F)(F)F)c1",
    "subject_of_test": "HOP-92 NSCLC",
    "growth, %": 46.9
  },
  {
    "compound": "Cc1ccc(C2CC(c3ccc(S(=O)(=O)NCCNc4nc(N(C)C)nc(N5CCOCC5)n4)cc3)=Nc3c(N)nc(N)nc3N2)cc1 (stereo not drawn)",
    "subject_of_test": "HOP-92 NSCLC",
    "growth, %": -9.13
  },
  {
    "compound": "CNS(=O)(=O)N1CCc2c(Br)c3c(c(OC)c2C1CCc1ccccc1)OCO3 (stereo not drawn)",
    "subject_of_test": "HOP-92 NSCLC",
    "growth, %": -54.3
  },
  {
    "compound": "COc1cc(C=O)ccc1OC(=O)c1cc(-c2ccc(C)cc2)n(-c2ccc(S(C)(=O)=O)cc2)n1",
    "subject_of_test": "HOP-92 NSCLC",
    "growth, %": 98.3
  },
  {
    "compound": "Cc1cccc(C)c1Nc1nnc(-c2c[nH]c3ccccc23)o1",
    "subject_of_test": "HOP-92 NSCLC",
    "growth, %": 89.9
  },
  {
    "compound": "CCCCC[C@@H]1C/C=C(\\C)[C@@H](O)C(C)(C)C(=O)[C@@H](C)/C=C(\\C)[C@@H]2C[C@H](O)C[C@](O)(CC(=O)O1)O2",
    "subject_of_test": "HOP-92 NSCLC",
    "growth, %": 60.4
  }
]

====

- System: 786-0 renal
- experiment: NCI-60 one-dose screen, 48 h
- condition_notes: 10 µM unless noted
This is part of a sample that, as a whole, favours compounds with a hit. Of some 83,000 tested, about 20% had one in any assay. Calls of active or inactive are those of the source. How the source made its calls: active means growth percent below 10; inactive means the rest.
Possible outcomes: true (1) for active, false (0) for inactive

[
  {
    "compound": "Cc1ccc(NC(=O)N/N=C/c2c[nH]c3ccccc23)c(C)c1",
    "class_label": "true (1)"
  },
  {
    "compound": "Cc1ccc(C(=O)Nc2cc(-n3cnc(F)c3)cc(C(F)(F)F)c2)cc1C#Cc1cnc2cccnn12",
    "class_label": "false (0)"
  },
  {
    "compound": "COc1sc(/C=N/NC(=O)c2[nH]c3ccc(Br)cc3c2-c2ccccc2)cc1Cl",
    "class_label": "true (1)"
  },
  {
    "compound": "O=CNc1cccc(-n2cnc3cc(-c4ccc(O)cc4)ccc32)c1",
    "class_label": "false (0)"
  },
  {
    "compound": "Oc1ccc(Cl)c(Nc2nc(SCCN3CCOCC3)nc3c2cnn3CC(Cl)c2ccc(Br)cc2)c1 (stereo not given)",
    "class_label": "false (0)"
  },
  {
    "compound": "CC1=C(C(=O)Nc2ccccc2)C(c2cccc(Cl)c2Cl)n2c(nc3ccccc32)N1 (stereo not given)",
    "class_label": "false (0)"
  },
  {
    "compound": "COc1ccc(C(=O)NNC(=O)CSc2nc3sc4c(c3c(=O)n2-c2ccc(Cl)cc2)CCCC4)cc1",
    "class_label": "false (0)"
  },
  {
    "compound": "C#CCCCNCCNc1ccnc2cc(Cl)ccc12",
    "class_label": "false (0)"
  },
  {
    "compound": "Oc1ccc(Cl)c(Nc2ncnc3c2cnn3CC(Cl)c2ccc(Br)cc2)c1 (stereo not given)",
    "class_label": "false (0)"
  },
  {
    "compound": "CS(=O)(=O)Nc1cncc(-c2ccc3ncnc(NCc4ccccc4)c3c2)c1",
    "class_label": "false (0)"
  }
]
